For each record, write down the corresponding growth.
- Tested on: OVCAR-5 ovarian
- assay_remarks: NCI-60 one-dose screen, 48 h (100 = growth as untreated, 0 = no growth, -100 = all killed)
- settings: 10 µM unless noted
This is part of a sample that, as a whole, favours compounds with a hit. Of some 83,000 tested, about 20% had one in any assay.
Express it in %; write the number only.

Reported growth (OVCAR-5 ovarian) for entry CC(C)CSc1oc(-c2ccccc2)nc1S(=O)(=O)c1ccccc1 is 110

With OVCAR-5 ovarian as the test system, N#C/C(=C\c1ccc(-c2ccc(Cl)cc2)o1)c1ccc(Cl)cc1 showed growth of 68.1

Reported growth (OVCAR-5 ovarian) for entry COc1ccc(C2C(C#N)=C(N)Oc3c2sc2c(Br)cccc32)cc1 (configuration not stated) is 50.5

The compound CCCCCCCC/C=C\CCCCCCCCOc1ccccc1CC(=O)NCC[N+]1(C)CCCCC1 , tested on OVCAR-5 ovarian, showed growth of 66.2

Query Cc1cccc(-n2c(C)nc3ccc(N4CCCNC4=O)cc3c2=O)c1 on OVCAR-5 ovarian; growth returned: 112

Tested on OVCAR-5 ovarian: C=C(C)[C@@H]1CC[C@]2(CO)CC[C@]3(C)[C@H](CC[C@@H]4[C@@]5(C)CCC(NCCc6ccc(O)cc6)C(C)(C)[C@@H]5CC[C@]43C)[C@@H]12 (some centres not stated) . Observed growth: -72.4

Value sought: growth, system OVCAR-5 ovarian, item NC(CSC(c1ccccc1)(c1ccccc1)c1ccc2c(c1)OCO2)C(=O)O (configuration not stated) . Result: 41

// growth (OVCAR-5 ovarian) for O[C@@H](c1cc(C(F)(F)F)nc2c(C(F)(F)F)cccc12)[C@H]1CCCCN1 = 77.7

I looked up CC1(C)OC(=O)C(=Cc2cccc(Br)c2)C(=O)O1 and its growth for OVCAR-5 ovarian was 117

Noted growth for Cc1nc2sc(C(=O)Nc3cccc(Cl)c3)c(N)c2cc1C(O)c1ccccc1 (configuration not stated) , tested on OVCAR-5 ovarian: 41.4

Tested system OVCAR-5 ovarian; growth recorded for COc1ccc(C2=Nc3c(N)ncnc3NC(c3cccc(Nc4ccnc5cc(C(F)(F)F)ccc45)c3)C2)cc1 (configuration not stated) was 92.3

With OVCAR-5 ovarian as the test system, O=C(Nc1ccc(F)cc1)Nc1ccccc1CNc1nc(Nc2ccc(OCCN3CCCC3)cc2)ncc1Cl showed growth of 16.9
